Reference source: the supplement of paper PMC7411054

Reported phenotypically active values for the following compounds.
System: A549-GM130-SQSTM1
Test: phenotypically active (imaging signature differs from DMSO and reproducible) at any of 0.3-9 uM (binary (1 = active, 0 = inactive)); higher = active
Conditions: treatment time: 24 h
Where a name gives a salt, the structure may show the parent alone.
Enter a number only.

Example cases with answers are listed next.
compound	studyTarget	phenotypically active
COC1=C(O)C(=O)c2ccccc2C1=O [2-hydroxy-3-methoxy-naphtoquinone]	A549-GM130-SQSTM1	0
CC1(C)CC(=O)C2=C(C1)NC(=S)NC2c1cccc(O)c1 (centres undefined)	A549-GM130-SQSTM1	1
Fc1ccc([C@@H]2CCNC[C@H]2COc2ccc3c(c2)OCO3)cc1	A549-GM130-SQSTM1	1
CCN(CC)CCNc1ccc(CO)c2sc3ccccc3c(=O)c12	A549-GM130-SQSTM1	1
COc1ccc2c3c1O[C@H]1C[C@@H](O)C=C[C@@]31CCN(C)C2	A549-GM130-SQSTM1	0

Qu. Using known records, supply phenotypically active for "O=C(CCCc1ccc(-c2ccccc2F)cc1)Nc1ccc(O)cc1"
Ans. 1

Qu. Using known records, supply phenotypically active for Nc1ncnc2c1nc(Br)n2[C@@H]1O[C@@H]2COP(=O)(O)O[C@H]2[C@H]1O [8-Bromo-cAMP, sodium salt]
Ans. 0

Qu. Using known records, supply phenotypically active for "NCCCC[C@H](N[C@@H](CCc1ccccc1)C(=O)O)C(=O)N1CCC[C@H]1C(=O)O"
Ans. 0

Qu. Using known records, supply phenotypically active for "CN1C(=O)OC(C)(C)C1=O"
Ans. 0
